# measurement.description: chemical genetic growth profiling, strain panel (AID 1159580);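 also: tested at 20 µM; growth read once vehicle control cultures reached saturation at 30 °C; 1 = growth at the plate median or of vehicle wells; lower values mean less growth of the strain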
# measurement.parameters: S. cerevisiae deletion strains, growth OD, locus YJL115W, strain asf1, hits give low values
The campaign covered roughly 5,500 compounds. About 2,000 (36%) were called active. Roughly 18% stayed inconclusive and do not appear here. The list shows a part of the results.
Checkbox rule: normalized growth lower than 1 = y; normalized growth not lower than 1 = n.

Task item: Identify whether the compound `NC(N)=NCCN1CCCCCCC1` records normalized growth below 1.
Reply: n

Task item: Identify whether the compound `Clc1ccc(CO/N=C(/Cn2ccnc2)c2ccc(Cl)cc2Cl)c(Cl)c1` records normalized growth below 1.
Reply: y

Task item: Identify whether the compound `COc1c(C)c2c(c(O)c1C/C=C(\C)CCC(=O)O)C(=O)OC2` records normalized growth below 1.
Reply: y

Task item: Identify whether the compound Clc1ccc(CSC(Cn2ccnc2)c2ccc(Cl)cc2Cl)cc1 (stereo not given) records normalized growth below 1.
Reply: y

Task item: Identify whether the compound Clc1ccc(COC(Cn2ccnc2)c2ccc(Cl)cc2Cl)cc1 (stereo not given) records normalized growth below 1.
Reply: y

Task item: Identify whether the compound `NCCCNCCSP(=O)(O)O` records normalized growth below 1.
Reply: y

====

# measurement.description: chemical genetic growth profiling, strain panel (AID 1159580)
# measurement.parameters: S. cerevisiae deletion strains, growth OD, locus YNR049C, strain mso1
Screen size: about 5,500 compounds; about 2,000 (36%) were called active. Not shown: some 18% with an inconclusive outcome. Rule as the data show it: active = normalized growth mostly below about 0.91 (no sharp cut-off); inconclusive = no clear call, values can overlap the other calls; inactive = mostly above about 0.92. This is one part of the list.
Classes to choose from: yes = active, no = inactive

Task item: Check the results log: what was the call for `NC1(C(=O)O)CCCC1` ?
Reply: no

Task item: Check the results log: what was the call for `CN1CCC[C@@H]1CCO[C@](C)(c1ccccc1)c1ccc(Cl)cc1` ?
Reply: no

Task item: Check the results log: what was the call for `NC(N)=NCCCCN=C(N)N` ?
Reply: no

Task item: Check the results log: what was the call for `Cc1onc(-c2ccccc2)c1-c1ccc(S(N)(=O)=O)cc1` ?
Reply: no

Task item: Check the results log: what was the call for Clc1ccc(C(Cn2ccnc2)OCc2ccsc2Cl)c(Cl)c1 (configuration not stated) ?
Reply: yes

Task item: Check the results log: what was the call for `NC1(C(=O)O)CC1` ?
Reply: no

Task item: Check the results log: what was the call for `COc1ccc(-c2oc3cc(OC)c(OC)c(OC)c3c(=O)c2OC)cc1OC` ?
Reply: no

Task item: Check the results log: what was the call for CC1CCC(NC(=O)N(CCCl)N=O)CC1 (configuration not stated) ?
Reply: no

Task item: Check the results log: what was the call for Clc1ccc(COC(Cn2ccnc2)c2ccc(Cl)cc2Cl)cc1 (configuration not stated) ?
Reply: yes

Task item: Check the results log: what was the call for Clc1ccc(CSC(Cn2ccnc2)c2ccc(Cl)cc2Cl)cc1 (configuration not stated) ?
Reply: yes

Task item: Check the results log: what was the call for COC(=O)/C(C)=C\CC12OC(C)(C)C3CC(C=C4C(=O)c5c(OC)c6c(c(CC=C(C)C)c5OC431)OC(C)(CCC=C(C)C)C=C6)C2=O (configuration not stated) ?
Reply: no

Task item: Check the results log: what was the call for `Cc1ccc(C(=O)c2ccc(CC(=O)O)n2C)cc1` ?
Reply: no

====

Record form. Attribute: normalized growth. Fill in for each entry.
# measurement.description: chemical genetic growth profiling, strain panel (AID 1159580);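 also: tested at 20 µM; growth read once vehicle control cultures reached saturation at 30 °C; 1 = growth at the plate median or of vehicle wells; lower values mean less growth of the strain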
# measurement.parameters: S. cerevisiae deletion strains, growth OD, locus YLR370C, strain arc18, hits give low values
The whole screen tested about 5,500 compounds, of which about 2,000 (36%) were called active. Another 18% or so got no clear call; they are omitted. The list shows a part of the results.
Quick one: just the number, no unit, thanks!

Task item: # get_value(readout='normalized growth', item= CN(C)CCC(c1ccccc1)c1ccccn1 (stereo not given) )
Reply: 1.02

Task item: # get_value(readout='normalized growth', item= `Cc1onc(-c2ccccc2)c1-c1ccc(S(N)(=O)=O)cc1` )
Reply: 0.999

Task item: # get_value(readout='normalized growth', item= `Cc1cc(CC(=O)O)n(C)c1C(=O)c1ccc(Cl)cc1` )
Reply: 1.04

Task item: # get_value(readout='normalized growth', item= CC1(C)C(=O)[C@@H]2O[C@@H]2[C@@]2(C)C1C[C@@H](O)[C@]1(C)C2CC[C@@]2(C)[C@H](c3ccoc3)OC(=O)C3OC321 (stereo not given in full) )
Reply: 0.995

Task item: # get_value(readout='normalized growth', item= `NC1(C(=O)O)CCCC1` )
Reply: 1.02

Task item: # get_value(readout='normalized growth', item= CN[C@@H]1C(OC2[C@H](O[C@H]3[C@H](O)[C@@H](O)[C@H](N=C(N)N)[C@@H](O)[C@@H]3N=C(N)N)OC(C)[C@]2(O)CO)OC(CO)C(O)C1O (stereo not given in full) )
Reply: 1.01

Task item: # get_value(readout='normalized growth', item= `CN(C/C=C/C#CC(C)(C)C)Cc1cccc2ccccc12` )
Reply: 0.405

Task item: # get_value(readout='normalized growth', item= O=c1cccc2n1CC1CC2CN2CCCC[C@@H]12 (stereo not given in full) )
Reply: 0.989

Task item: # get_value(readout='normalized growth', item= O=C(O)CCC1NCC2CC1CN1CCCCC21 (stereo not given) )
Reply: 0.978

Task item: # get_value(readout='normalized growth', item= `COc1cc(C)c2c(=O)cc(-c3ccccc3)oc2c1` )
Reply: 0.945

====

# measurement.description: chemical genetic growth profiling, strain panel (AID 1159580);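 also: tested at 20 µM; growth read once vehicle control cultures reached saturation at 30 °C; 1 = growth at the plate median or of vehicle wells; lower values mean less growth of the strain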
# measurement.parameters: S. cerevisiae deletion strains, growth OD, locus YOR083W, strain WHI5, hits give low values
The whole screen tested about 5,500 compounds, of which about 2,000 (36%) were called active. Roughly 18% stayed inconclusive and do not appear here. This is one part of the list.
Record form. Attribute: normalized growth. Fill in for each entry.
Quick one: just the number, no unit, thanks!

Task item: # get_value(readout='normalized growth', item= CN(C)CCC(c1ccccc1)c1ccccn1 (centres undefined) )
Reply: 1.01

Task item: # get_value(readout='normalized growth', item= `COc1c(C)c2c(c(O)c1C/C=C(\C)CCC(=O)O)C(=O)OC2` )
Reply: 0.581

Task item: # get_value(readout='normalized growth', item= `O=NN(CCCl)C(=O)NCCCl` )
Reply: 0.844

Task item: # get_value(readout='normalized growth', item= `Cc1nnc(NS(=O)(=O)c2ccc(N)cc2)s1` )
Reply: 0.978

Task item: # get_value(readout='normalized growth', item= `CC(O)(P(=O)(O)O)P(=O)(O)O` )
Reply: 1.03

Task item: # get_value(readout='normalized growth', item= CC1[C@H](C)OC(=O)CC(O)CC(O)CC(O)CCC(O)C(O)C[C@]2(O)CC(O)C(C(=O)O)C(CC(OC3O[C@H](C)[C@@H](O)[C@H](N)[C@@H]3O)/C=C/C=C/C=C/C=C/CC/C=C/C=C/[C@H](C)[C@H]1O)O2 (some centres undefined) )
Reply: 0.798

Task item: # get_value(readout='normalized growth', item= CC1OC(O[C@H]2/C=C/C=C/C=C/C=C/C=C/C=C/C=C/[C@H](C)[C@@H](O)[C@@H](C)[C@H](C)OC(=O)CC(O)CC(O)CCC(O)C(O)CC(O)C[C@]3(O)C[C@H](O)C(C(=O)O)C(C2)O3)C(O)[C@H](N)C1O (some centres undefined) )
Reply: 0.956

Task item: # get_value(readout='normalized growth', item= COC[C@]12CN(C=O)C3[C@@H]4[C@H](OC)C1[C@]3(C1CC3(O)C(OC)C(O)C4(OC(C)=O)C1C3OC(=O)c1ccccc1)[C@@H](OC)C[C@H]2O (some centres undefined) )
Reply: 1.01

Task item: # get_value(readout='normalized growth', item= CC1CCC(NC(=O)N(CCCl)N=O)CC1 (centres undefined) )
Reply: 0.598

====

# measurement.description: chemical genetic growth profiling, strain panel (AID 1159580);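 also: tested at 20 µM; growth read once vehicle control cultures reached saturation at 30 °C; 1 = growth at the plate median or of vehicle wells; lower values mean less growth of the strain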
# measurement.parameters: S. cerevisiae deletion strains, growth OD, locus YGR052W, strain FMP48
The whole screen tested about 5,500 compounds, of which about 2,000 (36%) were called active. Inconclusive results (about 18%) are left out. Cut-off read from the data, not from the text of the source: active = normalized growth mostly below about 0.91 (no sharp cut-off); inconclusive = no clear call, values can overlap the other calls; inactive = mostly above about 0.92. Some of the results follow.
Classes to choose from: yes = active, no = inactive

Task item: Check the results log: what was the call for `N/C(=N/O)c1ccc(Oc2ccc(C3SCCS3)cc2)c([N+](=O)[O-])c1` ?
Reply: no

Task item: Check the results log: what was the call for `O=C(NNc1ccccc1)c1cc(-c2ccc(Cl)cc2)oc1C(F)(F)F` ?
Reply: yes

Task item: Check the results log: what was the call for `Cc1ccc(-c2nc(NS(=O)(=O)c3cccc4nonc34)sc2C)cc1Cl` ?
Reply: no

Task item: Check the results log: what was the call for `O=C(Oc1ccc2ccccc2c1C1SCCS1)c1ccc([N+](=O)[O-])o1` ?
Reply: no

Task item: Check the results log: what was the call for `COc1ccc(-c2csc(-c3cccnc3)n2)cc1` ?
Reply: no

Task item: Check the results log: what was the call for `Clc1ccccc1-c1csc(-c2cccnc2)n1` ?
Reply: no

Task item: Check the results log: what was the call for `Clc1ccccc1-c1csc(-c2ccncc2)n1` ?
Reply: no

Task item: Check the results log: what was the call for CC(C)(C)C1=C(C#N)C(c2c(Cl)cccc2Cl)C(C#N)=C(N)O1 (stereo unspecified) ?
Reply: no

Task item: Check the results log: what was the call for `CC1=CC(=O)N(c2ccc(F)c(Cl)c2)C1=O` ?
Reply: yes

Task item: Check the results log: what was the call for `O=C(Nc1ccncc1)c1cc(-c2ccccc2)oc1C(F)(F)F` ?
Reply: no

Task item: Check the results log: what was the call for `CN(C)c1ccc(/C=C/c2ccc3ccccc3[n+]2C)cc1` ?
Reply: no

Just for reference, PubChem BioAssay AID1159580 is where these values come from.
